Non-standard residues stand in square brackets, D forms with d. Residues, ends and D or L forms follow the SMILES beside them. Cha = N[C@@H](CC1CCCCC1)C(=O)O; pGlu = O=C1CC[C@@H](C(=O)O)N1
System: Thyrotropin-releasing hormone receptor (Mus musculus, UniProt P21761) | Read-out: Ki
Sequence (P21761 whole entry): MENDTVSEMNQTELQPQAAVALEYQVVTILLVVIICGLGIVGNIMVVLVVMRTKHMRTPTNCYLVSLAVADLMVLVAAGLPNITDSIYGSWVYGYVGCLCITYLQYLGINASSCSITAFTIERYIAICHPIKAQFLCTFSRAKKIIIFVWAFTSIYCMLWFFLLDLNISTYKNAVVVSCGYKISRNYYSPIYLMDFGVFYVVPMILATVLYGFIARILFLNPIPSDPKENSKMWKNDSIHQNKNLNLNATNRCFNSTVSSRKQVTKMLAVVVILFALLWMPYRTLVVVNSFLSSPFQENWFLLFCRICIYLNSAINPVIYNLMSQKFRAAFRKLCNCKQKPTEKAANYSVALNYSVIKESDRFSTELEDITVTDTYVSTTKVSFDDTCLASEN
Write the answer as a number in µM, unit excluded.

>>> print(df.to_string())
                                   compound  parameter  units_of_measure  test_value
0  NC(=O)[C@@H]1CCCN1C(=O)[C@H](CC1CCCCC1)NC(=O)[C@@H]1CCC(=O)N1 ([pGlu]-[Cha]-Pro-NH2)         Ki                µM         6.5

Attention now shifts to the item below.
Ask: Notebook: pull reported Ki for Thyrotropin-releasing hormone receptor (Mus musculus, UniProt P21761), entry "NC(=O)[C@@H]1CCCN1C(=O)[C@H](Cc1cnc[nH]1)NC(=O)[C@@H]1CCC(=O)N1"
Result: 0.023

---

- Measured on: Thyrotropin-releasing hormone receptor (Mus musculus, UniProt P21761)
- Test description: Ability to activate thyroliberin endocrine receptor (TRH-R) using AtT-20 mouse pituitary tumor cells prelabelled with myo-[3H] inositol
Non-standard residues stand in square brackets, D forms with d. Residues, ends and D or L forms follow the SMILES beside them. Cha = N[C@@H](CC1CCCCC1)C(=O)O; pGlu = O=C1CC[C@@H](C(=O)O)N1
A collection of molecules and their measured EC50
Write the answer as a number in µM, unit excluded.

Known results for molecules:
>>> df
                                   molecule  test_value
0  NC(=O)[C@@H]1CCC2CC(C3CCCCC3)=C(N3CC[C@]4(CCC(=O)N4)C3=O)C(=O)N21 (single isomer, unassigned; 2b)          18
1  NC(=O)[C@@H]1CCC2CC(C3CCCCC3)=C(N3CC[C@]4(CCC(=O)N4)C3=O)C(=O)N21 (single isomer, unassigned; 2a)         1.8
2  NC(=O)[C@@H]1CCCN1C(=O)[C@H](Cc1cnc[nH]1)NC(=O)[C@@H]1CCC(=O)N1     0.00049

Attention now shifts to the item below.
Ask: # query: EC50 of entry NC(=O)[C@@H]1CCCN1C(=O)[C@H](CC1CCCCC1)NC(=O)[C@@H]1CCC(=O)N1 ([pGlu]-[Cha]-Pro-NH2)
Result: 0.43
